Where do these numbers come from? They come from patent US20070270418A1.

Target: p38α (Homo sapiens)
Construct: p38 MAP Kinases are recombinant human full-length proteins with an amino-terminal GST fusion; GST (N)
Test: p38 MAP Kinase assay, ATF2 phosphorylation (ELISA)
Details: 40 μM ATP
Observation Type: IC50 (nM)

1: OCC(CO)Nc1nccc(-c2c(-c3cccc(F)c3)nc3sccn23)n1
2: CNCCNc1nccc(-c2c(-c3ccc(F)cc3)nc3occn23)n1
# argmax over IC50 for candidates 1 and 2 Answer by quoting the chosen item's label.
2

----------
Target: p38α (Homo sapiens, UniProt Q16539)
Construct: p38 MAP Kinases are recombinant human full-length proteins with an amino-terminal GST fusion; GST (N)
Sequence (Q16539 whole entry, the tested form may be a part): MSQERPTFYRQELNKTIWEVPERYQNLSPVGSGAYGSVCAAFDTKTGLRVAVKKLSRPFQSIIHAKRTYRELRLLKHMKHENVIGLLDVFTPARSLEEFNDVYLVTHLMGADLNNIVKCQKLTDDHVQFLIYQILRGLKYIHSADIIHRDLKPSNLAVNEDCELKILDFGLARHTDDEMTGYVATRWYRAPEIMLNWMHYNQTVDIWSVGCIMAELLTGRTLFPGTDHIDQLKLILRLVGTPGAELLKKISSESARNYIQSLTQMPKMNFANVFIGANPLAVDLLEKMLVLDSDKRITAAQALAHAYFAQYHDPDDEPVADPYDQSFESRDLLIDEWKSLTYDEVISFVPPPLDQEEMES
Experiment: p38 MAP Kinase assay, ATF2 phosphorylation (ELISA)
Settings: 40 μM ATP
Observation Type: IC50 (nM)

Worked cases, answers included:
>  <Compound>
OC1CCCCC1Nc1nccc(-c2c(-c3ccc(F)cc3)nc3occn23)n1 (stereo not drawn)

>  <IC50 [nM]>
21.8

$$$$
>  <Compound>
CN(C)CC(C)(C)CNc1nccc(-c2c(-c3ccc(F)cc3Cl)nc3occn23)n1

>  <IC50 [nM]>
20.3

$$$$
>  <Compound>
Cc1ccccc1-c1nc2occn2c1-c1ccnc(NC2C[C@H]3CC[C@@H](C2)N3C)n1 (stereo partly drawn)

>  <IC50 [nM]>
13.9

$$$$
>  <Compound>
CC(C)CNc1nccc(-c2c(-c3ccc(F)cc3)nc3sccn23)n1

>  <IC50 [nM]>
1.97

$$$$
>  <Compound>
Oc1ccc(C(O)CNc2nccc(-c3c(-c4ccc(F)cc4)nc4sccn34)n2)cc1 (stereo not drawn)

>  <IC50 [nM]>
8.81

$$$$
>  <Compound>
CC(C)C[C@H](CO)Nc1nccc(-c2c(-c3ccc(F)cc3)nc3occn23)n1

>  <IC50 [nM]>
86.6

$$$$

A: Fc1ccc(CN2CCC(Nc3nccc(-c4c(-c5ccc(F)cc5)nc5sccn45)n3)CC2)cc1
B: OCC(CO)Nc1nccc(-c2c(-c3ccc(F)cc3)nc3sccn23)n1
C: Fc1ccc(-c2nc3occn3c2-c2ccnc(NCc3ccncc3)n2)cc1
D: Fc1ccc(CNc2nccc(-c3c(-c4ccccc4)nc4sccn34)n2)cc1
E: OCCN(CCO)c1nccc(-c2c(-c3ccc(F)cc3)nc3sccn23)n1
I would appreciate it if you could sort these 5 compounds by IC50, starting from the smallest number. Please, when replying, give the labels in the order that was requested.
A, B, D, C, E
(A: 30.2 nM, B: 87.1 nM, D: 150 nM, C: 234 nM, E: 793 nM)

A: NS(=O)(=O)c1ccc(CCNc2nccc(-c3c(-c4ccc(F)cc4)nc4occn34)n2)cc1
B: COc1cccc(-c2nc3sccn3c2-c2ccnc(N[C@H](CO)C(C)C)n2)c1 [CC]
C: Fc1ccc(-c2nc3sccn3c2-c2ccnc(NCc3ccco3)n2)cc1
D: CSc1nccc(-c2c(-c3ccc(F)cc3)nc3sc(C)cn23)n1
Hey, quick one: sort these by IC50, low to high? Present the labels in the sequence the task asks for.
A, C, B, D
(A: 5.44 nM, C: 8.22 nM, B: 112 nM, D: 741 nM)

1: CCCC[C@@H](CO)Nc1nccc(-c2c(-c3ccc(F)cc3)nc3sccn23)n1
2: OC[C@H](Cc1ccccc1)Nc1nccc(-c2c(-c3ccc(F)cc3)nc3sccn23)n1
Of 1 and 2 , which one carries the higher reported IC50? Return value: the label identifying the chosen record.
2
(2: 176 nM, 1: 5.45 nM)
